Reference for the values: patent US20190307731A1

target-entity: native (Human Hepatoma Huh-7) AhR receptor (Homo sapiens, UniProt P35869)
Construct: expression of native (Human Hepatoma Huh-7) AhR receptor reporter gene cells; endogenous in cells; host or cells: Human hepatoma Huh-7 cells carrying a firefly luciferase reporter vector
Sequence (P35869 11-848): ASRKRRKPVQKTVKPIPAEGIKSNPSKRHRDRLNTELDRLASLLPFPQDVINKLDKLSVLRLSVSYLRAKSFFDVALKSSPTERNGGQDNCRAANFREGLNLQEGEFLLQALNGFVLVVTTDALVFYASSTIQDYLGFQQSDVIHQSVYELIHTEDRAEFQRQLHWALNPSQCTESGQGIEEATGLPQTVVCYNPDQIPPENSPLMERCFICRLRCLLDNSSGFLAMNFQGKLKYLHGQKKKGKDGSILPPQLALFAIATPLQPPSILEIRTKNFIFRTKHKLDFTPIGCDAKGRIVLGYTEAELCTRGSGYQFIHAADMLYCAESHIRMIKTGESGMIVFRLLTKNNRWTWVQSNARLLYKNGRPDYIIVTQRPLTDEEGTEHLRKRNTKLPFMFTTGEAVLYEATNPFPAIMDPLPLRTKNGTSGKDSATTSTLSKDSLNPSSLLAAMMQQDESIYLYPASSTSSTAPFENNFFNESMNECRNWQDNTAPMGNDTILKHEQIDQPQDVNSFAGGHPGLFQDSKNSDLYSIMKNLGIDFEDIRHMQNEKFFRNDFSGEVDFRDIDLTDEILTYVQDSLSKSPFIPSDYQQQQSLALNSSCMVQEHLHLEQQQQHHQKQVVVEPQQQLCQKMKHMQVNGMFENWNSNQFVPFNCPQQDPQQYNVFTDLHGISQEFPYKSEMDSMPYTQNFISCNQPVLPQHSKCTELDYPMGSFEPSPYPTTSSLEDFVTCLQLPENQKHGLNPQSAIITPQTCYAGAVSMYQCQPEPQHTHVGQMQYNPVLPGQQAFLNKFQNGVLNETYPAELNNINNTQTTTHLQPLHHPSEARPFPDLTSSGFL
experiment-summary: AhR agonism assay (luciferase reporter gene cells)
Assay type: cell-based
conditions-used: AhR receptor reporter gene cells, 24 h incubation at 37° C., luciferase readout; read-out: EC50
pEC50: −log10 of the molar value.
property: pEC50

Entry CC(C)c1ncc(C(=O)c2c[nH]c3ccccc23)s1 has what pEC50?
4.00 to 5.00

* * *

Please respond with reported pEC50 for every item in the list.
target-entity: native (Human Hepatoma Huh-7) AhR receptor (Homo sapiens)
Construct: expression of native (Human Hepatoma Huh-7) AhR receptor reporter gene cells; endogenous in cells; host or cells: Human hepatoma Huh-7 cells carrying a firefly luciferase reporter vector
experiment-summary: AhR agonism assay (luciferase reporter gene cells)
Type: cell-based
pEC50: −log10 of the molar value.

smi: COC(=O)c1nsc(C(=O)c2c[nH]c3ccc(OC)cc23)n1
property: pEC50
test-result: 5.00 to 6.00

Entry COC(=O)c1nsc(C(=O)c2c[nH]c3ccc(F)cc23)n1 has what pEC50?
5.00 to 6.00
